Data origin, for the record: paper PMC4648050

# Lookup of reported remaining activity at 10 µM keyed by entry
# TESTED TARGET: MSK1 (Homo sapiens, UniProt O75582)
# Sequence (O75582 whole entry): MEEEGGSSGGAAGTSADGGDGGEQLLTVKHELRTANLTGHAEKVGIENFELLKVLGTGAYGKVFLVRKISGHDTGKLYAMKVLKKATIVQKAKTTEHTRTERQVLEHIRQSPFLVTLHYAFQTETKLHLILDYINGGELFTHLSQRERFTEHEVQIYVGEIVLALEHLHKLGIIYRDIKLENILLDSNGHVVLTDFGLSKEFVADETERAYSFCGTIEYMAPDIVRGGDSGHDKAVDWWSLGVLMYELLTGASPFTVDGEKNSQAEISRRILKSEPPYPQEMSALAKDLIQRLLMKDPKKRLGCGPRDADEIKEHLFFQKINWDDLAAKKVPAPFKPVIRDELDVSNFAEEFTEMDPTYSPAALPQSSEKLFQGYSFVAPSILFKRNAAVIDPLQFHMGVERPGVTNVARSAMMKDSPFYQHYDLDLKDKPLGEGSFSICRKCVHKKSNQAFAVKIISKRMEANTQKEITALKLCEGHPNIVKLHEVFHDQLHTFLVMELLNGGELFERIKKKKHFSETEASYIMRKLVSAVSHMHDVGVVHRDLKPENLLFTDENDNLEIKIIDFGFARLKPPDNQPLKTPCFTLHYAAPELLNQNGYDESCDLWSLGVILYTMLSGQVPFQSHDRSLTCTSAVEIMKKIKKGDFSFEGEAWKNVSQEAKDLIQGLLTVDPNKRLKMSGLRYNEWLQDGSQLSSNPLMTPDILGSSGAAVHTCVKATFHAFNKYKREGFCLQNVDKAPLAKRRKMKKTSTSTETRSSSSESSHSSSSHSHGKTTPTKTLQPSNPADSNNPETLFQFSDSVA
# METHOD NOTES: Kinase panel: MSK1
# Type: biochemical, human/mammalian
# TEST SETTINGS: compound at 10 μM, read-out: % of activity respect of the control
// units = %; emit number, no label

Worked examples, 3 molecules total:
MOLECULE	READOUT NUMBER
O=c1[nH]c2ncc(-c3ccc(F)cc3)nc2n1CC1CC1	89
O=c1[nH]c2ncc(-c3ccc(F)cc3)nc2n1C1CCCCC1	97
CC(c1ccccc1)n1c(=O)[nH]c2ncc(-c3ccc(F)cc3)nc21 (stereo not shown)	89

Let's switch to this molecule now.
Measured on MSK1 (Homo sapiens, UniProt O75582), C[C@H](c1ccccc1)n1c(=O)[nH]c2ncc(-c3ccccc3)nc21 has a documented remaining activity at 10 µM of 93

* * *

# TESTED TARGET: Aurora B (Homo sapiens, UniProt Q96GD4)
# Sequence (Q96GD4 whole entry): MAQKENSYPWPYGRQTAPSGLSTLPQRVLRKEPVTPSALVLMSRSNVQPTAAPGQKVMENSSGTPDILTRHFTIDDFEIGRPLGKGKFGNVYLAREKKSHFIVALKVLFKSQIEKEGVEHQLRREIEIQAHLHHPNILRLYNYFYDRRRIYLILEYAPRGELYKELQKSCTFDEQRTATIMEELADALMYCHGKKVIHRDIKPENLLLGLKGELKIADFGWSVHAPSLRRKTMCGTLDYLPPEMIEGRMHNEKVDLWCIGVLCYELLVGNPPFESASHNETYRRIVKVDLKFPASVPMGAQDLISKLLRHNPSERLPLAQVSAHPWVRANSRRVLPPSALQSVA
# METHOD NOTES: Kinase panel: Aurora B
# Type: biochemical, human/mammalian
# TEST SETTINGS: compound at 10 μM, read-out: % of activity respect of the control
Reported remaining activity at 10 µM values follow for various compounds
Write the answer as a number in %, unit excluded.

COMPOUND	PROPERTY LABEL	UNIT LABEL	READOUT NUMBER
O=c1[nH]c2ncc(-c3ccc(F)cc3)nc2n1C1CCCCC1	remaining activity at 10 µM	%	85
CC(c1ccccc1)n1c(=O)[nH]c2ncc(-c3ccc(F)cc3)nc21 (stereo not shown)	remaining activity at 10 µM	%	117
O=c1[nH]c2ncc(-c3ccc(F)cc3)nc2n1CC1CC1	remaining activity at 10 µM	%	93

With those in mind, consider the next compound.
Hey, Aurora B (Homo sapiens, UniProt Q96GD4) data for C[C@H](c1ccccc1)n1c(=O)[nH]c2ncc(-c3ccccc3)nc21 : remaining activity at 10 µM came out at 99

* * *

Reported fraction unbound at 5 h, 10 μg g^−1 values for a set of molecules
# METHOD NOTES: Plasma protein binding (equilibrium dialysis)
# Format: in vitro ADME
# TEST SETTINGS: female, CD1; mouse plasma, equilibrium dialysis; read-out: PPB
The response must contain the number and no unit.

MOLECULE	fraction unbound at 5 h, 10 μg g^−1
O=c1[nH]c2ncc(-c3ccccc3)nc2n1C1CCCCC1 [Compound 19]	0.008
O=c1[nH]c2ncc(-c3ccc(CO)cc3)nc2n1C1CCCCC1 [Compound 21]	0.047
O=c1[nH]c2ncc(-c3ccccc3CO)nc2n1C1CCCCC1 [Compound 28]	0.072
c1ccc(-c2cnc3[nH]nc(C4CCCCC4)c3c2)cc1 [Compound 60]	0.014
O=c1[nH]c2ncc(-c3cccnc3)cc2n1C1CCCCC1 [Compound 55]	0.11
c1cncc(-c2cnc3[nH]nc(C4CCCCC4)c3c2)c1 [Compound 63]	0.052
COc1ccc(-c2cnc3[nH]c(=O)n(C4CCCCC4)c3n2)cc1 [Compound 20]	0.007

Please examine the following record next.
Summary for this molecule, O=c1[nH]c2ncc(-c3cccnc3)nc2n1C1CCCCC1 [Compound 30] : fraction unbound at 5 h, 10 μg g^−1 is 0.023

* * *

Reported values of solubility kinetic for individual entries
# METHOD NOTES: Kinetic aqueous solubility (laser nephelometry)
# Type: physicochemical
# TEST SETTINGS: Milli-Q water with 2.5% DMSO, kinetic from dmso stock, range 250–12 μM, read-out: Aq. Sol. (aqueous kinetic solubility)

COMPOUND	RESULT
C[C@H](c1ccccc1)n1c(=O)[nH]c2ncc(-c3ccccc3)nc21	< 12 µM
CC(c1ccccc1)n1c(=O)[nH]c2ncc(-c3ccc(F)cc3)nc21 (stereo not shown)	< 12 µM
O=c1[nH]c2ncc(-c3ccccc3CO)nc2n1C1CCCCC1	> 250 µM

Proceeding to the next compound to report its solubility kinetic.
O=c1[nH]c2ncc(N3CCCCC3)cc2n1C1CCCCC1 has a reported solubility kinetic of > 250 µM
